Molecular target: RAC-alpha serine/threonine-protein kinase (Homo sapiens, UniProt P31749)
Sequence (P31749 whole entry): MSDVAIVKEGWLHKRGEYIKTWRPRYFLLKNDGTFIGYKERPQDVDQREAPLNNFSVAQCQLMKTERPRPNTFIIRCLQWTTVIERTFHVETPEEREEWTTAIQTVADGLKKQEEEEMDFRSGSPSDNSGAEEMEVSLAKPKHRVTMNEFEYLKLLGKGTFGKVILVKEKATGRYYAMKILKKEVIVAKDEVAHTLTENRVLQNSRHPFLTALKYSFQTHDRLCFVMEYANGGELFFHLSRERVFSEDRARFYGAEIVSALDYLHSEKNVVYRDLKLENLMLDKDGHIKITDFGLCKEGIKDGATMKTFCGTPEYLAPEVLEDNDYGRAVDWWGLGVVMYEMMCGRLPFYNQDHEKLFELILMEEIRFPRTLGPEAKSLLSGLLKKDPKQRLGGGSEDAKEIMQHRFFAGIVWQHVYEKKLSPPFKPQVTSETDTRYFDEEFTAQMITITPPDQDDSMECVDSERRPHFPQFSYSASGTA
Assay: Inhibition of AKT phosphorylation in human OVCAR-8 cells assessed as reduction in pAKT level incubated for 24 hrs by Western blot analysis
measurement.type: pIC50
Scale note: pIC50 = -log10(concentration in M).

>>> df
                                   compound  experimental_result
0  c1cc(-c2ccnc3ccc(-c4cnc5[nH]ncc5c4)cc23)ccn1                 7.12

Input: Value lookup for pIC50; key = O=C1NC(=O)C(Cc2ccc3nccc(-c4ccncc4)c3c2)S1 (centres undefined)
Output: 7.40

Input: Query (compound): O=S(=O)(Nc1cncc(-c2ccc3nccc(-c4ccncc4)c3c2)c1)c1ccccc1F ; field requested: pIC50
Output: 8.15

Input: // returns reported pIC50 for input Nc1ncc(-c2ccc3nccc(-c4ccncc4)c3c2)cc1S(N)(=O)=O
Output: 7.31
